Sourced from PubChem BioAssay (NCI)

# System: HL-60(TB) leukemia
# PROCEDURE SUMMARY: NCI tumour cell line growth inhibition, 48 h
READOUT KIND: TGI

# count of solved cases: 4
compound=CCOC(=O)[C@H]1O[C@@H]1C(=O)N[C@@H](CC(C)C)C(=O)NCCc1ccc(O)cc1 target_or_test_system="HL-60(TB) leukemia" readout_kind=TGI observed_measurement="> 100 µM"
compound="CC1(C)OC2C(CO)OC(n3cnc(N)nc3=O)C2O1 (stereo not given)" target_or_test_system="HL-60(TB) leukemia" readout_kind=TGI observed_measurement="> 100 µM"
compound=CNC(=S)Nc1sc2c(c1C#N)CCCC2 target_or_test_system="HL-60(TB) leukemia" readout_kind=TGI observed_measurement="> 75 µM"
compound=CCOC(=O)C(=O)Nc1ccc(C)c(C)c1 target_or_test_system="HL-60(TB) leukemia" readout_kind=TGI observed_measurement="> 100 µM"

Moving on to the next compound.
Returns the measured TGI for the input compound. Input: `CCN(CC)C(=O)C[n+]1c2ccccc2n2cc(N)ccc21`
> 100 µM
